Biological target: Methyl-CpG-binding domain protein 4 (Homo sapiens);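 note: MBD4 activity read as fluorescence at 594 nm from cleavage and release of a quenched duplex DNA oligonucleotide, with APE1 coupled to incise the strand and raise turnover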
Settings: Compound Concentration 10.0 uM, Hit No
Description: Inhibition of MBD4 by quantifying inhibition of MBD4-mediated cleavage and dissociation of quenched duplex DNA oligonucleotides, measured as fluorescence at 594 nm. To generate a functional strand incision and increase turn-over this assay is coupled to APE1.
quantity name: inhibition (%)
# value in %; strip the unit string

Incoming: Name the recorded inhibition for `CC#C[C@@H](CC(=O)O)c1ccc(OCc2cccc(-c3ccc(C(F)(F)F)cc3)c2)cc1` .
Outgoing: 48.1

Incoming: Likewise for `Cn1ncc2c(-c3c(-c4ccc(F)cn4)nn4c3COC(C)(C)C4)ccnc21` ?
Outgoing: 50.1

Incoming: Record: Cc1cccc([C@H]2CC[C@@H](N3CCN(c4cccnc4)CC3)CC2)c1 (mixture of isomers)
Outgoing: 56.1

Incoming: Entry to check: COc1cc(O)c(C(CC(=O)N2C[C@H](C)C[C@H](C)C2)c2ccc3c(c2)OCO3)c(OC)c1 (stereo not given in full)
Outgoing: 55.4

Incoming: Follow-up entry: `C[C@H](C[C@H](N)C(=O)O)C(=O)O`
Outgoing: 13.5

Incoming: // repeat for `CCCN(CCC)[C@@H]1CCc2ccc3[nH]c(C#N)cc3c2C1` and report
Outgoing: 35.8

Incoming: Another compound to check: `CCOc1ccccc1C(=O)NCC1(N2CCN(CC)CC2)CCCCC1`
Outgoing: -3.81

Incoming: Quick one: `N=C(N)NCCSC(=N)N`
Outgoing: 16.4

Incoming: Also `COc1cc(/C=C/C(=O)NCCn2c(C)cc3ccccc32)cc(OC)c1OC` ?
Outgoing: 11.5

Incoming: Then this compound: `CC(C=CC1=C(C)CCCC1(C)C)=CC=CC(C)=CC(=O)O`
Outgoing: 57.7

====

Please provide measured inhibition for the entries that follow.
Target: Adenine DNA glycosylase (Homo sapiens) (UniProt Q9UIF7);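 note: human MUTYH activity read as 594 nm fluorescence from cleavage and release of a quenched DNA duplex, coupled with APE1 for strand incision, lower signal meaning inhibition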
Sequence (Q9UIF7 whole entry): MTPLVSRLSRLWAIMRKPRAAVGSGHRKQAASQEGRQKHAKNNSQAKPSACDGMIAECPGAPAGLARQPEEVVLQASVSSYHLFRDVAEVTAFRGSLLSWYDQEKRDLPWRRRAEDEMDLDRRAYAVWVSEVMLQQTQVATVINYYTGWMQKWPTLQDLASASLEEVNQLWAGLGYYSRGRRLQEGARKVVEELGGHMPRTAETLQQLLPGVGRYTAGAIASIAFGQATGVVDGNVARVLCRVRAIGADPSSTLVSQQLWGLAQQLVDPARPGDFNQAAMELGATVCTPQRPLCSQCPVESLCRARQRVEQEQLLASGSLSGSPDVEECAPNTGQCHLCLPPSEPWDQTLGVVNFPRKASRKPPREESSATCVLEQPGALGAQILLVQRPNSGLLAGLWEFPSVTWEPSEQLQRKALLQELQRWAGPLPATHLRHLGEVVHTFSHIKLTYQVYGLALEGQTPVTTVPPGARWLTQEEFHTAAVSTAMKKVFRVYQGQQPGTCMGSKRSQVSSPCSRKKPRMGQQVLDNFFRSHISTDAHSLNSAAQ
Conditions: Compound Concentration 10.0 uM, Hit No
Description: Inhibition of MUTYH by quantifying inhibition of MUTYH-mediated cleavage and dissociation of quenched duplex DNA oligonucleotides, measured as fluorescence at 594 nm. To generate a functional strand incision and increase turn-over this assay is coupled to APE1.

Incoming: # inhibition lookup, item `Cc1ccc(/C(=C\CN2CCCC2)c2ccccn2)cc1`
Outgoing: 2.96%

Incoming: And the next one, `O=C(Nc1ccc(Cl)nc1)c1ccc(Cl)cc1` ?
Outgoing: 26.6%

Incoming: Again, but for `Cc1cc(-c2ccnc(Nc3cnn(C)c3)n2)ccc1CNC(=O)N1CC(OC(C)C)C1`
Outgoing: 22.5%

Incoming: Record: Oc1cc2c(cc1O)C(c1ccccc1)CNCC2 (stereo unspecified)
Outgoing: 6.16%

Incoming: And the next one, `CCN(c1ccccc1)c1cc(NC)[n+](C)c(C)n1` ?
Outgoing: 7.99%

Incoming: // next record `CSc1ccc(C(=O)/C=C/c2cc(C)c(OC(C)(C)C(=O)O)c(C)c2)cc1`
Outgoing: 16.2%

Incoming: Try `Cc1c(F)cccc1[C@H]1COC(N)=N1` next.
Outgoing: 32.1%

Incoming: Then `CC(C)(C)c1ccc(NC(=O)N2CCN(c3ncccc3Cl)CC2)cc1` ?
Outgoing: -0.729%

Incoming: Further, for CC(C)(C)C1CCc2c(sc(NC(=O)c3ccco3)c2C(=O)O)C1 (stereo unspecified) ?
Outgoing: 30.5%

Incoming: Try the compound `COc1cc(N(C)c2ccnc3ccc(C(F)(F)F)cc23)cc(OC)c1OC`
Outgoing: -1.88%

Incoming: And `CO[C@H]1CC=C2CCN3CCC4=C(CC(=O)OC4)[C@]23C1` ?
Outgoing: 1.14%

====

Record form. Attribute: inhibition. Fill in for each entry.
Target: Endonuclease 8-like 2 (Homo sapiens)
Settings: Compound Concentration 10.0 uM, Hit No
Description: Inhibition of NEIL2 by quantifying inhibition of NEIL2-mediated cleavage and dissociation of quenched duplex DNA oligonucleotides, measured as fluorescence at 594 nm.
Provide the reading as a plain figure in %.

Incoming: // map `CCCNS(=O)(=O)Nc1ncnc(OCCOc2ncc(Br)cn2)c1-c1ccc(Br)cc1` to recorded inhibition (system: Endonuclease 8-like 2 (Homo sapiens));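 note: fluorescence at 594 nm reports NEIL2 cutting and release of a quenched double-stranded DNA oligo substrate, reduced signal read as inhibition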
Outgoing: 2.51

Incoming: What about this compound? `O=c1nc(-c2ccccn2)sc2ccccc12`
Outgoing: 17.4

Incoming: Please do the same for `O=S(=O)(c1ccccc1)c1cnc2c(N3CCNCC3)cccc2c1` as well.
Outgoing: -5.97

Incoming: Also need `CN1CCN(c2cnc3c(C4CCN(C(=O)c5ccc(OC(F)(F)F)cc5N)CC4)ncnc3c2)CC1` , thanks.
Outgoing: -8.19

Incoming: Now this one: OCc1cc(C(O)CNCCCCCCOCCCCc2ccccc2)ccc1O (stereo not drawn)
Outgoing: 4.01

Incoming: Same read-out for `CSCC[C@H](NC(=O)[C@H](Cc1ccccc1)NC(=O)[C@H](Cc1c[nH]cn1)NC(=O)CNC(=O)[C@@H](NC(=O)[C@H](C)NC(=O)[C@H](Cc1c[nH]c2ccccc12)NC(=O)[C@H](CC(C)C)NC(=O)[C@H](CC(N)=O)NC(=O)CN)[C@@H](C)O)C(N)=O` ?
Outgoing: -6.21

Incoming: Try this compound next: `NC(N)=Nc1nc(CSCC/C(N)=N/S(N)(=O)=O)cs1`
Outgoing: 17.5

Incoming: Param item: `CC(C)(N)C(=O)N[C@H](COCc1ccccc1)C(=O)N1CCC2(CC1)CN(S(C)(=O)=O)c1ccccc12`
Outgoing: 7

Incoming: Next up: `COc1cccc([C@H](O)C2CCN(CCc3ccc(F)cc3)CC2)c1OC`
Outgoing: -8.72

Incoming: Can you check `COc1cccc2c1c(NS(=O)(=O)c1ccc(Cl)s1)nn2Cc1cccc(CNC(=O)C(C)(C)O)c1` next?
Outgoing: 1.18

Incoming: Next entry: `O=C(NCc1ncc(C(F)(F)F)cc1Cl)c1ccc2c(c1)C1(CCS(=O)(=O)CC1)[C@@H](C1CC1)N2S(=O)(=O)c1ccc(F)cc1`
Outgoing: -9.67

Incoming: Then this compound: `CN(C(=O)c1cnn2cccnc12)c1cc2c(cc1N1CCOCC1)C(=O)N(C[C@@H](F)C(C)(C)O)C2`
Outgoing: -1.57

Incoming: Also, `C[C@H](c1ccc(F)cc1)N(Cc1cccc(C(=O)O)c1)C(=O)c1cnc2ccccc2c1` please.
Outgoing: 0.531

Incoming: How about `N[C@@]1(C(=O)O)CC[C@H]2[C@H](C(=O)O)[C@H]21` ?
Outgoing: -1.37

Incoming: Now try CCN(Cc1ccncc1)C(=O)C(CO)c1ccccc1 (stereo not drawn) .
Outgoing: 9.75

Incoming: Next compound: `CCc1ccc(OCc2ccccc2C(=O)Nc2ccc3nc(C)cc(N)c3c2)cc1`
Outgoing: 16.5

Incoming: Another compound to check: `CC[C@H](C(=O)Nc1ccccc1N1CCCC1)c1ccccc1`
Outgoing: 3.22

Incoming: Do the same for `Cc1c(F)cccc1NC(=O)Nc1ccc(Cl)c(S(=O)(=O)[C@H]2CCCNC2)c1O` please
Outgoing: -7.22

====

Biological target: Endonuclease 8-like 1 (Homo sapiens) (UniProt Q96FI4);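 note: fluorescence at 594 nm from quenched duplex DNA oligonucleotides released by NEIL1 cleavage and strand separation, reported as reduction of this enzyme activity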
Sequence (Q96FI4 whole entry): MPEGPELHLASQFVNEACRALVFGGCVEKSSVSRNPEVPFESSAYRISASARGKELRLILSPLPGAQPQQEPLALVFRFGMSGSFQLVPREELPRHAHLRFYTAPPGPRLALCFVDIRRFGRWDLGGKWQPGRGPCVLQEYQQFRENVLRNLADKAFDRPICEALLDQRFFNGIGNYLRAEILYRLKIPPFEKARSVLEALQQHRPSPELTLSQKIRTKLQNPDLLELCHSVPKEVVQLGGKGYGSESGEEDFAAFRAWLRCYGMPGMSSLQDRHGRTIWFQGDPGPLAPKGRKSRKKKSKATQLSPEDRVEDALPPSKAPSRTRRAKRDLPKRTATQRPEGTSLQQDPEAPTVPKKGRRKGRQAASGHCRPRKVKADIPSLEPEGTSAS
Settings: Compound Concentration 10.0 uM, Hit No
Description: Inhibition of NEIL1 by quantifying inhibition of NEIL1-mediated cleavage and dissociation of quenched duplex DNA oligonucleotides, measured as fluorescence at 594 nm.
For each entry below, report its inhibition value.
Quick note: give the figure in %, leave out the unit.

Incoming: For `O=C(O)COc1cccc(-c2ocnc2-c2nc(-c3ccccc3)c(-c3ccccc3)o2)c1` , what is its reported inhibition?
Outgoing: 1.64

Incoming: Same lookup for `Cc1ccc(O)c([C@H](CCN(C(C)C)C(C)C)c2ccccc2)c1` , please.
Outgoing: 5.28

Incoming: Query `COc1cc(C(C)C)c(Oc2cnc(NC(CO)CO)nc2N)cc1I` next
Outgoing: -4.73

Incoming: Now give it for `CCCCC[C@H](O)/C=C/[C@@H]1[C@@H](C/C=C\CCCC(=O)O)[C@@H](O)C[C@H]1O` too.
Outgoing: 7.21

Incoming: Now give it for `N#Cc1ccc(O[C@@H]2c3ccccc3C[C@H]2N2CCC[C@@H](N)C2)c(Cl)c1` too.
Outgoing: 13.1

Incoming: Param item: `C[C@@H](N)Cc1c[nH]cn1`
Outgoing: 3.8

Incoming: Thanks! And `O=C(NCCN1CCC(n2c(=O)[nH]c3cc(Cl)ccc32)CC1)c1ccc(F)cc1` ?
Outgoing: 5.43

Incoming: Quick one: `NC1(c2ccc(-c3nc4ccn5c(=O)[nH]nc5c4cc3-c3ccccc3)cc2)CCC1`
Outgoing: 17.6

Incoming: And what about the molecule `COc1ccc2c(c1)O[C@H](c1ccc(OC)c(OC)c1)C[C@@H]2NC(=O)C1(c2ccc3c(c2)OC(F)(F)O3)CC1` ?
Outgoing: -6.95

Incoming: Again, but for `Cc1cc(-c2ccnc(Nc3cnn(C)c3)n2)ccc1CNC(=O)N1CC(OC(C)C)C1`
Outgoing: -3.03

====

Exercise: state measured inhibition for each of the compounds provided.
Biological target: Endonuclease III-like protein 1 (Homo sapiens) (UniProt P78549);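 note: enzyme assay tracking NTHL1 cutting and release of a quenched double-stranded DNA oligo substrate, read as fluorescence at 594 nm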
Sequence (P78549 whole entry): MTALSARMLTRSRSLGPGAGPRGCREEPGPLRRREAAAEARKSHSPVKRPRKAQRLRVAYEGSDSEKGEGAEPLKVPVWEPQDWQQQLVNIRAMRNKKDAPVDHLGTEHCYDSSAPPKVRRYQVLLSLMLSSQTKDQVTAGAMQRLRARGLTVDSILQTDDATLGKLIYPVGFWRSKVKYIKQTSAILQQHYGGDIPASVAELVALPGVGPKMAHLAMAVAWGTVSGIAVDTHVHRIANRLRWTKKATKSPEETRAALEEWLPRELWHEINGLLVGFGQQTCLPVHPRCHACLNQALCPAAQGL
Details: Compound Concentration 10.0 uM, Hit No
Description: Inhibition of NTHL1 by quantifying inhibition of NTHL1-mediated cleavage and dissociation of quenched duplex DNA oligonucleotides, measured as fluorescence at 594 nm.
Report the figure in % without appending any unit label.

Incoming: Which inhibition value belongs to `CCCCCCCCc1ccc(CCC(N)(CO)CO)cc1` ?
Outgoing: -6.87

Incoming: Another compound to look at: `CN1CC[C@@]23CCCC[C@@H]2[C@@H]1Cc1ccc(O)cc13`
Outgoing: 14.6

Incoming: `N#Cc1c(O)nc(SCc2cccc(F)c2F)nc1C1CC1` , same question.
Outgoing: 17.3

Incoming: Record: `O=C(Nc1c(-c2cccs2)nc2ccc(Cl)cn12)c1ccc(Cl)cc1`
Outgoing: 13.8

Incoming: Now consider `O=C(Nc1cccnn1)N1CCC(=Cc2cccc(Oc3ccc(C(F)(F)F)cn3)c2)CC1` and answer again.
Outgoing: 5.94

Incoming: # repeat for `COc1ccccc1CN[C@H]1C2CCN(CC2)[C@H]1C(c1ccccc1)c1ccccc1`
Outgoing: -5.41

Incoming: Okay, and `CNc1nc(Nc2ccccc2)nc(OC(C(F)(F)F)C(F)(F)F)n1` ?
Outgoing: 19.6

Incoming: And then `CCC[C@@H]1CNCc2c1[nH]c(=O)c(C#N)c2N1CCC2(CC1)CC2` , what is it?
Outgoing: -9.18

Incoming: Okay, and `C[C@@H]1CN(c2cc(-c3nn(C)c4ccc(OC5(C)CC5)cc34)ncn2)C[C@H](C)O1` ?
Outgoing: -7.86

Incoming: What do we get for Cc1onc(O)c1CC(N)C(=O)O (stereo not given) ?
Outgoing: -3.56

Incoming: Now try `CC(C)C[C@@H](C(=O)N[C@@H](Cc1ccc(OCc2ccccc2)cc1)C(=O)NC(C)(C)C)N(C)Cc1ccc(C(C)(C)C)cc1` .
Outgoing: 23.7

Incoming: Now consider `CC(C)NC(=O)N1CC[C@H](NC2=Nc3cc(F)ccc3N(CC(F)F)c3ccc(Cl)cc32)C1` .
Outgoing: 4.27

Incoming: For COC(=O)N1CCN(C(=O)Cc2ccc(Cl)c(Cl)c2)C(CN2CCCC2)C1 (stereo not given) then?
Outgoing: 19.6

Incoming: Input `CN1CCN(C(=O)c2ccc3cc2OCCOCCNc2ccn4ncc-3c4n2)CC1`
Outgoing: -5.49

Incoming: Same question for `c1ccc(N2CCN(Cc3nc4ccccc4[nH]3)CC2)nc1` please.
Outgoing: 0.934

Incoming: Further, for `CNC(=O)Nc1ccc(-c2nc(N3CC4CCC(C3)O4)c3cnn(C4CCC5(CC4)OCCO5)c3n2)cc1` ?
Outgoing: 2.88

Incoming: Let us now turn to `S=C(NCCCc1c[nH]cn1)NCCCN(Cc1ccc(Cl)c(Cl)c1)c1ccc(Br)cn1`
Outgoing: 7.05

Incoming: Ok, now `COc1ccc(-c2ccc3cc(C(=O)O)ccc3c2)cc1C12CC3CC(CC(C3)C1)C2`
Outgoing: 6.6

Incoming: Consider next the compound `COc1ccc(/C=C/CCCCOc2ccc(C(=O)c3cccc(C(=O)O)c3)cc2CCC(=O)O)cc1` in the same way.
Outgoing: 2.66

Incoming: Repeat with `CN(C)S(=O)(=O)c1ccc(NC(=S)N2CCC(C(O)(c3ccccc3)c3ccccc3)CC2)cc1`
Outgoing: 16.6

Source listed as ChEMBL document CHEMBL5665443.
